- TESTED SYSTEM: dopamine D2 receptors (Homo sapiens (Human), UniProt P14416)
- Sequence (P14416 whole entry): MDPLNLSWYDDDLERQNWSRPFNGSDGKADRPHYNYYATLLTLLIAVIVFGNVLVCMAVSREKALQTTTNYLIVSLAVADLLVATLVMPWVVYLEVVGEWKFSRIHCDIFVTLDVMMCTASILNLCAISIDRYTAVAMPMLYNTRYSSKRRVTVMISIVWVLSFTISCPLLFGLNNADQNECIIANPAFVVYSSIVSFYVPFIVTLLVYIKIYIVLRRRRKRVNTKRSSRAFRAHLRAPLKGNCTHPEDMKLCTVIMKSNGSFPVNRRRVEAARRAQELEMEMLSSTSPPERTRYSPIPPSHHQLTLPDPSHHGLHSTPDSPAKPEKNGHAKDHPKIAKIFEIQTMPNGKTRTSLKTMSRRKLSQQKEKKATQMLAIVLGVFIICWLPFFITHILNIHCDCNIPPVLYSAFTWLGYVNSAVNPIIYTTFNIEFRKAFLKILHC
- ASSAY: Dopamine D2 receptor β-arrestin2 BRET (recruitment)
- Format: cell-based
- RUN PARAMETERS: relative to endogenous ligand dopamine, read-out: β-arrestin2 BRET Emax % ± SEM
ENDPOINT LABEL: Emax (%)

Task item: Can you share its Emax? I mean this compound: COc1cccc2c1cc1n2CCN(CC[C@H]2CC[C@H](NC(=O)N(C)C)CC2)C1
Reply: 151

Task item: Would you kindly repeat that for COc1cccc2c1nc1n2CCN(CCCCOc2ccc3ccc(=O)[nH]c3c2)C1 [I-D1] ?
Reply: 100

Task item: Same question, COc1cccc2c3c([nH]c12)CN(CC[C@H]1CC[C@H](NC(=O)N(C)C)CC1)CC3 this time
Reply: 44

I. COc1cccc2c3c(oc12)CN(CCCCOc1ccc2ccc(=O)n(C)c2c1)CC3
II. COc1cccc2c1nc1n2CCN(CCCCOc2ccc3c(c2)NC(=O)CC3)C1 [I-D2]
III. CCOc1cccc2c3c(oc12)CN(CCNC(=O)c1cccs1)CC3
Task item: Put the compounds in ascending order of Emax. # output: labels, in the requested order
Reply: III, I, II

A. COc1cccc2c1cc1n2CCN(C/C=C/COc2ccc3c(c2)NC(=O)CC3)C1
B. CCOc1cccc2c3c(oc12)CN(CCCCOc1ccc2c(c1)NC(=O)CO2)CC3
Task item: Dear colleague, could you let me know whether A or B has the lower recorded Emax? Thanks. When you have decided, please share the label of that item.
Reply: B
(B: 52%, A: 92%)
